Where these numbers come from: the supplement of paper PMC10899765

test system: MCF10A; test: 5+ nucleoli phenotype percent effect (relative to siNT 0% and siKIF11 100%); higher = more cells with five or more nucleoli; details: 20 nM; 72 h

>  <sequence>
CAAUGUUUCCACAGUGCAUCAC [hsa-miR-33a-3p]

>  <5+ nucleoli phenotype percent effect / %>
2.57

$$$$
>  <sequence>
AGGGUGUUUCUCUCAUCUCU [hsa-miR-609]

>  <5+ nucleoli phenotype percent effect / %>
53.7

$$$$
>  <sequence>
UGAGGAUAUGGCAGGGAAGGGGA [hsa-miR-3679-5p]

>  <5+ nucleoli phenotype percent effect / %>
29.7

$$$$
>  <sequence>
UGAAGUACCAGCUACUCGAGAG [hsa-miR-5585-5p]

>  <5+ nucleoli phenotype percent effect / %>
-8.83

$$$$
>  <sequence>
CUCUAGAGGGAAGCGCUUUCUG [hsa-miR-519c-5p]

>  <5+ nucleoli phenotype percent effect / %>
-10.6

$$$$
>  <sequence>
AGGCAGGUUAUCUGGGCUG [hsa-miR-4736]

>  <5+ nucleoli phenotype percent effect / %>
13.2

$$$$
>  <sequence>
UAAUGCCCCUAAAAAUCCUUAU [hsa-miR-365b-3p]

>  <5+ nucleoli phenotype percent effect / %>
-12.3

$$$$
>  <sequence>
GUGUGUGGAAAUGCUUCUGC [hsa-miR-147a]

>  <5+ nucleoli phenotype percent effect / %>
-15.3

$$$$
>  <sequence>
AGGUCUGCAUUCAAAUCCCCAGA [hsa-miR-6503-5p]

>  <5+ nucleoli phenotype percent effect / %>
10.7

$$$$
>  <sequence>
AGGUUGUCUGUGAUGAGUUCG [hsa-miR-410-5p]

>  <5+ nucleoli phenotype percent effect / %>
75.2

$$$$
>  <sequence>
GCCCGCGUGUGGAGCCAGGUGU [hsa-miR-1471]

>  <5+ nucleoli phenotype percent effect / %>
49.2

$$$$
>  <sequence>
UAACACUGUCUGGUAACGAUGU [hsa-miR-200a-3p]

>  <5+ nucleoli phenotype percent effect / %>
36.9

$$$$
>  <sequence>
UGAUGGAGCUGGGAAUACUCUG [hsa-miR-8082]

>  <5+ nucleoli phenotype percent effect / %>
-14.2

$$$$
>  <sequence>
CUGGAGUCUAGGAUUCCA [hsa-miR-4309]

>  <5+ nucleoli phenotype percent effect / %>
-25.6

$$$$
>  <sequence>
UGUGAGGUUGGCAUUGUUGUCU [hsa-miR-1294]

>  <5+ nucleoli phenotype percent effect / %>
-10.7

$$$$

---

// reported 5+ nucleoli phenotype percent effect per item
system: MCF10A; experiment: 5+ nucleoli phenotype percent effect (relative to siNT 0% and siKIF11 100%); higher = more cells with five or more nucleoli; conditions: 20 nM; 72 h
property_measured: 5+ nucleoli phenotype percent effect (%)

>  <sequence>
UAGCGGGGAUUCCAAUAUUGG [hsa-miR-4781-5p]

>  <property_measured>
5+ nucleoli phenotype percent effect

>  <readout_unit>
%

>  <test_value>
-29.7

$$$$
>  <sequence>
CAGGGAACAGCUGGGUGAGCUGCU [hsa-miR-6750-5p]

>  <property_measured>
5+ nucleoli phenotype percent effect

>  <readout_unit>
%

>  <test_value>
27.2

$$$$
>  <sequence>
UACUUUUCUAGGUUGUUGGGG [hsa-miR-5003-3p]

>  <property_measured>
5+ nucleoli phenotype percent effect

>  <readout_unit>
%

>  <test_value>
-39.5

$$$$
>  <sequence>
CAGGGAGGUGAAUGUGAU [hsa-miR-1321]

>  <property_measured>
5+ nucleoli phenotype percent effect

>  <readout_unit>
%

>  <test_value>
6.81

$$$$
>  <sequence>
AAUCAUUCACGGACAACACUU [hsa-miR-382-3p]

>  <property_measured>
5+ nucleoli phenotype percent effect

>  <readout_unit>
%

>  <test_value>
36.3

$$$$
>  <sequence>
UCAAAAUGUAGAGGAAGACCCCA [hsa-miR-4698]

>  <property_measured>
5+ nucleoli phenotype percent effect

>  <readout_unit>
%

>  <test_value>
21.6

$$$$
>  <sequence>
UCAAUAGGAAAGAGGUGGGACCU [hsa-miR-6826-5p]

>  <property_measured>
5+ nucleoli phenotype percent effect

>  <readout_unit>
%

>  <test_value>
-20.8

$$$$
>  <sequence>
AAUUUGGUUUCUGAGGCACUUAGU [hsa-miR-5002-5p]

>  <property_measured>
5+ nucleoli phenotype percent effect

>  <readout_unit>
%

>  <test_value>
1.85

$$$$
>  <sequence>
UAAGGCACCCUUCUGAGUAGA [hsa-miR-506-3p]

>  <property_measured>
5+ nucleoli phenotype percent effect

>  <readout_unit>
%

>  <test_value>
-31.8

$$$$
>  <sequence>
GACACGGGCGACAGCUGCGGCCC [hsa-miR-602]

>  <property_measured>
5+ nucleoli phenotype percent effect

>  <readout_unit>
%

>  <test_value>
45.6

$$$$
>  <sequence>
CAGGCAGGUGUAGGGUGGAGC [hsa-miR-6893-5p]

>  <property_measured>
5+ nucleoli phenotype percent effect

>  <readout_unit>
%

>  <test_value>
-6.16

$$$$
>  <sequence>
GCUGAUGAUGAUGGUGCUGAAG [hsa-miR-4502]

>  <property_measured>
5+ nucleoli phenotype percent effect

>  <readout_unit>
%

>  <test_value>
38.7

$$$$
>  <sequence>
UGAUCUCACCGCUGCCUCCUUC [hsa-miR-4695-3p]

>  <property_measured>
5+ nucleoli phenotype percent effect

>  <readout_unit>
%

>  <test_value>
12.8

$$$$
>  <sequence>
CAGGGGCUGGGGUUUCAGGUUCU [hsa-miR-6813-5p]

>  <property_measured>
5+ nucleoli phenotype percent effect

>  <readout_unit>
%

>  <test_value>
-16.1

$$$$
